The following compounds are shown together with reported kinase still bound, per cent of control values.
- tested_system: MERTK (human) (UniProt Q12866)
- Sequence (Q12866 whole entry, looked up): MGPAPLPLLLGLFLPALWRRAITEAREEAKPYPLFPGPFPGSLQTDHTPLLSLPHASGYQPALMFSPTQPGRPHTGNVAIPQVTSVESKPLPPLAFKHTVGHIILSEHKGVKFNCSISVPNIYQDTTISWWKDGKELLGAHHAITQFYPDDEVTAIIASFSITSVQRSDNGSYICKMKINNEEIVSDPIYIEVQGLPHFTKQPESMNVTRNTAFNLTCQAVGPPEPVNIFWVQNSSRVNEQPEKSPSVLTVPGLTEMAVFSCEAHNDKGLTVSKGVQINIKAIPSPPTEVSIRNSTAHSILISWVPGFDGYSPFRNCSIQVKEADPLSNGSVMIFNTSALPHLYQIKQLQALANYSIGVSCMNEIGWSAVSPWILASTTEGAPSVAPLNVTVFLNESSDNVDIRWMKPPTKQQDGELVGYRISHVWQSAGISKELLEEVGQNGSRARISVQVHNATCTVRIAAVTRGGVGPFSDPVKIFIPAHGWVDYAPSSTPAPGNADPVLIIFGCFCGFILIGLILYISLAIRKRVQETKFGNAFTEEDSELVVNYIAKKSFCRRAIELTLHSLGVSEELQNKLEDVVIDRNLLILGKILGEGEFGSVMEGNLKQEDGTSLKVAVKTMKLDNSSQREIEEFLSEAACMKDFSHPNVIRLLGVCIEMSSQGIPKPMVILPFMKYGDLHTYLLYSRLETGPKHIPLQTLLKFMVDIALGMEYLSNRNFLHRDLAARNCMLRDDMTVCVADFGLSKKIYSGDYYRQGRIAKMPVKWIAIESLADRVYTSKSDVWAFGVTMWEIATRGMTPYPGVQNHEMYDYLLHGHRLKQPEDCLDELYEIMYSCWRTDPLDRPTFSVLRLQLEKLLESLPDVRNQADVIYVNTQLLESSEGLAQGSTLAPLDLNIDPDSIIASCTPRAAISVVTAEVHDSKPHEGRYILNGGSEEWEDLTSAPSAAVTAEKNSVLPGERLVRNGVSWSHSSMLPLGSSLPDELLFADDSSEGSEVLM
- method: KINOMEscan competition binding
- measurement_parameters: compound 1.0 µM
attribute_measured: kinase still bound, per cent of control

INSERT INTO measurements (molecule, attribute_measured, test_result) VALUES
  ('CN(C)C/C=C/C(=O)Nc1cccc(C(=O)Nc2ccc(Nc3nccc(/C(C#N)=C4\Nc5ccccc5S4)n3)cc2)c1', 'kinase still bound, per cent of control', '66%'),
  ('CN(C)C/C=C/C(=O)Nc1cccc(C(=O)Nc2ccc(Nc3nccc(-c4c(-c5ccccc5)nn5ccccc45)n3)cc2)c1', 'kinase still bound, per cent of control', '49%'),
  ('Cc1cc(NC(=O)c2cccc(NC(=O)/C=C/CN(C)C)c2)ccc1Nc1nccc(-c2cccnc2)n1', 'kinase still bound, per cent of control', '100%'),
  ('CN(C)C/C=C/C(=O)Nc1cccc(C(=O)Nc2ccc(Nc3nccc(-c4cccnc4)n3)cc2)c1', 'kinase still bound, per cent of control', '100%');

----------
A collection of compounds and their measured kinase still bound, per cent of control
- tested_system: GRK4 (human)
- method: KINOMEscan competition binding
- measurement_parameters: compound 1.0 µM
attribute_measured: kinase still bound, per cent of control

INSERT INTO measurements (molecule, attribute_measured, test_result) VALUES
  ('Cc1cc(NC(=O)c2cccc(NC(=O)/C=C/CN(C)C)c2)ccc1Nc1nccc(-c2cccnc2)n1', 'kinase still bound, per cent of control', '96%'),
  ('CN(C)C/C=C/C(=O)Nc1cccc(C(=O)Nc2ccc(Nc3nccc(-c4c(-c5ccccc5)nn5ccccc45)n3)cc2)c1', 'kinase still bound, per cent of control', '93%'),
  ('CN(C)C/C=C/C(=O)Nc1cccc(C(=O)Nc2ccc(Nc3nccc(/C(C#N)=C4\Nc5ccccc5S4)n3)cc2)c1', 'kinase still bound, per cent of control', '78%'),
  ('CN(C)C/C=C/C(=O)Nc1cccc(C(=O)Nc2ccc(Nc3nccc(-c4cccnc4)n3)cc2)c1', 'kinase still bound, per cent of control', '32%');

----------
- tested_system: UniProt P51451
- Sequence (P51451 whole entry, looked up): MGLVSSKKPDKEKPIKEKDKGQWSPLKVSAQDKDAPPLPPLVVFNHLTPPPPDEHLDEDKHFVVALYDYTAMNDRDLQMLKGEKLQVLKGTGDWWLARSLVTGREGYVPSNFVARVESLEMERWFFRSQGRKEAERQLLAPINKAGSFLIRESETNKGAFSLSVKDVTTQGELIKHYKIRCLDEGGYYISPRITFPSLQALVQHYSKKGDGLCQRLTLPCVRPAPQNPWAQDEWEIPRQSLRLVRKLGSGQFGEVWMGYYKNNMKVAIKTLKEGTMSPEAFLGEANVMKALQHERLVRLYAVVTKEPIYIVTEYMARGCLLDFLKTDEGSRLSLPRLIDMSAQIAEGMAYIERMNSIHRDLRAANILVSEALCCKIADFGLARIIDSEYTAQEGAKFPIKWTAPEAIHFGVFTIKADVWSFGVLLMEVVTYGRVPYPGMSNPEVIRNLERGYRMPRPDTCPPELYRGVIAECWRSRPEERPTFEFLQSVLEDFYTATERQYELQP
- method: KINOMEscan competition binding
- measurement_parameters: compound 1.0 µM
attribute_measured: kinase still bound, per cent of control (%)

INSERT INTO results (molecule, value_unit, test_result) VALUES
  ('CN(C)C/C=C/C(=O)Nc1cccc(C(=O)Nc2ccc(Nc3nccc(-c4cccnc4)n3)cc2)c1', '%', 100),
  ('CN(C)C/C=C/C(=O)Nc1cccc(C(=O)Nc2ccc(Nc3nccc(/C(C#N)=C4\Nc5ccccc5S4)n3)cc2)c1', '%', 100),
  ('Cc1cc(NC(=O)c2cccc(NC(=O)/C=C/CN(C)C)c2)ccc1Nc1nccc(-c2cccnc2)n1', '%', 65),
  ('CN(C)C/C=C/C(=O)Nc1cccc(C(=O)Nc2ccc(Nc3nccc(-c4c(-c5ccccc5)nn5ccccc45)n3)cc2)c1', '%', 5.9);

----------
- tested_system: CSK (human)
- method: KINOMEscan competition binding
- measurement_parameters: compound 1.0 µM
Reported kinase still bound, per cent of control by item:
attribute_measured: kinase still bound, per cent of control (%)

INSERT INTO assay_data (molecule, test_result) VALUES
  ('CN(C)C/C=C/C(=O)Nc1cccc(C(=O)Nc2ccc(Nc3nccc(/C(C#N)=C4\Nc5ccccc5S4)n3)cc2)c1', 100),
  ('CN(C)C/C=C/C(=O)Nc1cccc(C(=O)Nc2ccc(Nc3nccc(-c4c(-c5ccccc5)nn5ccccc45)n3)cc2)c1', 89),
  ('CN(C)C/C=C/C(=O)Nc1cccc(C(=O)Nc2ccc(Nc3nccc(-c4cccnc4)n3)cc2)c1', 97),
  ('Cc1cc(NC(=O)c2cccc(NC(=O)/C=C/CN(C)C)c2)ccc1Nc1nccc(-c2cccnc2)n1', 100);
